Biological target: CIB1 and αIIb interaction (CIB1-GST : F-αIIb peptide) (Homo sapiens, UniProt Q99828)
Construct: made in house; host or cells: BL-21 plus RIL cells (E. coli)
Sequence (Q99828 1-191): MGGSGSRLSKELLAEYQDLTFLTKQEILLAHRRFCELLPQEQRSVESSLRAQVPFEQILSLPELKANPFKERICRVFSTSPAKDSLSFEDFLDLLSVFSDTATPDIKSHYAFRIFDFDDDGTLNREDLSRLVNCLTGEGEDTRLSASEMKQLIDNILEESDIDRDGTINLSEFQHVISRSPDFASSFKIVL
Experiment: FP assay, 1536-well qHTS format (primary and confirmatory screen)
Assay type: binding
Details: confirmatory screen, qHTS curve class; negative sign = inhibitory curve
Each item that follows carries a reported Curve Class (confirmatory screen).

Nc1ccc(CNc2ccc(S(=O)(=O)Nc3nccs3)cc2)c(O)c1.O=C(O)C(F)(F)F	-3

The compound `Cl.N=C(NCCCCCCNC(=N)NC(=N)Nc1ccc(Cl)cc1)NC(=N)Nc1ccc(Cl)cc1` showed Curve Class (confirmatory screen) equal to -2.2
